Target: mu opioid receptor (Rattus norvegicus, UniProt P33535)
Construct: the forebrains were homogenized in Tris buffer in a Teflon®-glass homogenizer; from tissue; host or cells: forebrain of male Wistar rats, particulate (membrane) preparation
Sequence (P33535 whole entry): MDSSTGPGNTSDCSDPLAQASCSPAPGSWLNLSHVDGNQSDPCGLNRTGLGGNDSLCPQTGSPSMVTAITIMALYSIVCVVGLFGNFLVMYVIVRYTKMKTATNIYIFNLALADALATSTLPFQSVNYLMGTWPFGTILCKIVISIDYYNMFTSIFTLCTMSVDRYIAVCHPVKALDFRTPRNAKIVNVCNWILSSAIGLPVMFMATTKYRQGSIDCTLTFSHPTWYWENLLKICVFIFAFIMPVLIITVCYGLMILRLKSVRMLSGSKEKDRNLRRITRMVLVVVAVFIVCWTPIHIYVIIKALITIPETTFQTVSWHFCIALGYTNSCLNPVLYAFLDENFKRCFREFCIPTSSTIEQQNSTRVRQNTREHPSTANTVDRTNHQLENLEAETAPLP
Test: Rat brain mu opioid receptor binding assay
Settings: μ-binding Ki, rat forebrain, [3H]DAMGO ligand
readout.label: log10 Ki (log10 of the value in nM)
Response schema: value (number) is log10 of Ki in units of nM.

Below, each entry is followed by its recorded log10 Ki result.
Item `COc1ccc(Oc2nc(-c3cnc(C#N)nc3)ncc2NC[C@@H]2CCCN2)cc1` has what recorded log10 Ki? 2.58

Reported log10 Ki, molecule `COc1ccc(Oc2nc(-c3cccnc3)ncc2NC[C@@H]2CCCN2)cc1` : ____ 1.63

What does the record list as log10 Ki for COc1ccc(Oc2nc(-c3cncnc3)ncc2NC2CCCNC2)cc1 (stereo not drawn) ? 2.72

Item under review: `COc1ccc(Oc2nc(-c3cncc(OC)c3)ncc2NC[C@@H]2CCCN2)cc1` . Reported log10 Ki? 2.67

// returns reported log10 Ki for input `COc1ccc(Oc2nc(-c3cncc(C#N)c3)ncc2NC[C@@H]2CCCN2)cc1F` 1.79

Fill in the blank: the reported log10 Ki of `COc1ccc(Oc2nc(-c3ccc4[nH]ccc4c3)ncc2NC[C@@H]2CCCN2)cc1` is ____. 1.18

Fill in the blank: the reported log10 Ki of `CCOc1ccc(Oc2nc(-c3cncc(F)c3)ncc2NC[C@@H]2CCCN2)cc1` is ____. 1.62

Value lookup for log10 Ki; key = `COc1ccc(Oc2nc(-c3cncc(C#N)c3)ncc2NC[C@@H]2CCCN2)c(F)c1F` 1.76

Return reported log10 Ki; argument: `COc1ccc(Oc2nc(-c3cncc(SC)c3)ncc2NC[C@@H]2CCCN2)cc1` 1.59

Item `COc1ccc(Oc2nc(-c3ccc(OC)c(F)c3)ncc2NC[C@@H]2CCCN2)cc1` has what recorded log10 Ki? 2.67

Look up log10 Ki for the entries below, preserving their order.
1. CCCOc1ccc(Oc2nc(-c3cncc(C#N)c3)ncc2NC[C@@H]2CCCN2)cc1
2. Cc1ccc(Oc2nc(-c3cncc(C#N)c3)ncc2NC[C@@H]2CCCN2)cc1
3. COc1ccc(Oc2nc(-c3cncc(C#N)c3)ncc2NC[C@H]2C[C@H](N)C2)cc1
4. COc1ccc(Oc2nc(-c3cncc(C#N)c3)ncc2NC[C@@H]2CCCN2)cc1
5. COc1ccc(Oc2nc(-c3cncc(C#N)c3)ncc2NC[C@@H]2C[C@@H](F)CN2)cc1
6. CCOc1ccc(Oc2nc(-c3cncc(C#N)c3)ncc2NC[C@@H]2CCCN2)cc1
7. CCOc1ncc(-c2ncc(NC[C@@H]3CCCN3)c(Oc3ccc(OC)cc3)n2)cn1

[3.16, 2.64, 2.82, 2.29, 1.43, 2.28, 3.18]

Data request, read-out log10 Ki, for `COc1ccc(Oc2nc(-c3cccc(S(C)(=O)=O)c3)ncc2NC[C@@H]2CCCN2)cc1` 1.81

These data points were gathered from patent US8513271B2.
